composite z-score for assorted compounds
assay: small-molecule binders of probe aNOTCH2, primary screen, biochemical, small-molecule microarray, 635/667 nm fluorescence (AID 1121); details: higher = more signal;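 also: score merges feature fluorescence read at 667 nm with its signal to noise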

compound	composite z-score
CC(C)CON=C1C[C@@H](O)[C@@H](O)[C@@H]2[C@@H]3C(=O)N(Cc4ccccc4)C(=O)[C@@H]3CC[C@H]12	-0.122
COc1ccc(COC(=O)NN=C2C[C@@H](O)[C@@H](O)[C@@H]3[C@@H]4C(=O)N([C@@H](C)c5ccccc5)C(=O)[C@@H]4CC[C@@H]23)cc1	0.0318
COC(=O)[C@H](C)NC(=O)CCC1CC(OC(=O)NCc2ccc3c(c2)OCO3)CC2(CCCC(COC(=O)NCCCN3CCCC3=O)O2)O1 (stereo not given in full)	-0.293
CC(C)(C)N1C(=O)[C@H]2[C@H]3[C@H](O)[C@H](O)CC(=NOC[C@@H](O)COCc4ccco4)[C@@H]3CC[C@H]2C1=O	-0.0984
CCOC(=O)NN=C1C[C@@H](O)[C@@H](O)[C@@H]2[C@@H]3C(=O)N(C[C@@H]4CCCO4)C(=O)[C@@H]3CC[C@H]12	-0.15
CC1(C)O[C@H]2O[C@H]([C@H](O)CON=C3[C@H]4CCn5c(=O)n(-c6ccccc6)c(=O)n5[C@H]4[C@H](O)[C@@H]4O[C@H]34)[C@H](O)[C@H]2O1	-0.105
CCc1cc2c(nc1CC)CCN(CCC(C)=NOCC[C@@H]1C=C[C@H](OC(C)=O)[C@@H](COC(C)=O)O1)C2	-0.0798
CO[C@@H]1COC(=O)[C@H](COCc2ccccc2)NC(=O)CC=C[C@@H](C)[C@H](OC)COC(=O)[C@@H](C)NC(=O)CC=C[C@H]1C	-0.126
CO[C@@H]1COC(=O)[C@H](CCSC)NC(=O)CC=C[C@@H](C)COC(=O)[C@@H]2CCCN2C(=O)CC=C[C@H]1C	-0.199
COc1ccc(O[C@H]2C=C[C@@H](c3ccccc3)O[C@@H]2CON=C2c3cc(OC)ccc3O[C@H](c3cccc(OC)c3)[C@H]2O)cc1	-0.255
O=C(NN=C1C[C@@H](O)[C@@H](O)[C@@H]2[C@@H]3C(=O)N(Cc4ccc5c(c4)OCO5)C(=O)[C@@H]3CC[C@@H]12)OCc1ccccc1	-0.0817
COCC#Cc1ccc([C@@H]2N[C@H](C(=O)O)CC[C@H]2C)cc1	-0.144
CC(CCN1CCCCc2nc(C)c(C)cc21)=NOC[C@@H](O)[C@H]1O[C@@H]2OC(C)(C)O[C@@H]2[C@H]1O	-0.166
CC[C@@H](c1ccccc1)n1c(=O)n2n(c1=O)[C@H]1[C@H](O)[C@@H]3O[C@@H]3C(=NOCc3ccccc3)[C@H]1CC2	-0.203
COC(=O)[C@H](C)NC(=O)CCC1CC(OC(=O)NCc2cccc3ccccc23)CC2(CCCC(COC(=O)NCCC(C)C)O2)O1 (stereo not given in full)	-0.124
C[C@H]1CC[C@H]2C(=O)N[C@H](Cc3ccccc3)C(=O)N2[C@@H]1c1ccccc1	-0.0811
CCCNC(=O)OC[C@H]1O[C@H](CCON=C[C@@H](C)[C@H](OCc2ccccc2)C(C)C)C=C[C@@H]1Oc1ccc(OC)cc1	-0.149
O=C(NCCC[N+]1=CC=NC1c1ccccc1)N1CCCc2nc(-c3ccc(Br)cc3)ccc21 (stereo not given)	-0.119
COC(=O)CC=C[C@@H](C)[C@@H](C=NOC[C@@H](C)[C@H](OCc1ccccc1)C(C)C)OC	-0.124
CO[C@@H](C(C)C)[C@@H](C)C1OC(=O)CC1O (stereo not given in full)	-0.166
CCN1C(=O)[C@H]2[C@H]3[C@H](O)[C@H](O)CC(=NO[C@@H]4O[C@H](COC(C)=O)[C@@H](OC(C)=O)[C@H](OC(C)=O)[C@H]4OC(C)=O)[C@@H]3CC[C@H]2C1=O	-0.044
CCOC(=O)[C@H](CC(C)C)NC(=O)CCC1CC(OC(=O)NCc2ccc3c(c2)OCO3)CC2(CCCC(COC(=O)NCCc3ccc(Cl)cc3)O2)O1 (stereo not given in full)	-0.159
CCOC(=O)CCN1C(=O)[C@H]2[C@H]3[C@H](O)[C@H](O)CC(=NOCC=C(C)CCC=C(C)C)[C@@H]3CC[C@H]2C1=O	-0.154
COc1ccc(O[C@H]2C=C[C@@H](c3ccccc3)O[C@@H]2COC(=O)NCc2cccc3ccccc23)cc1	-0.159
C[C@@H]1CC[C@H]2C(=O)N3[C@@H](CC[C@@H](C)[C@@H]3c3ccc(Br)cc3)C(=O)N2[C@H]1c1ccc(Br)cc1	0.224
CC(=O)OC[C@H]1O[C@H](C#CCC2CCCCC2)C=C[C@@H]1OC(C)=O	-0.0632
CC(C)[C@H](NC(=O)OC(C)(C)C)[C@@H](O)CC(=O)C(C)(C)C	-0.152
CC(C)C(=O)N[C@H]1CCCN1C(=O)C=Cc1ccccc1	0.0062
CCN1C(=O)[C@H]2[C@H]3[C@H](O)[C@H](O)CC(=NO[C@H](C)c4cn([C@@H]5COC[C@H]5O)nn4)[C@@H]3CC[C@H]2C1=O	-0.04
CC(C)=NO[C@H](C)c1cn([C@@H]2COC[C@H]2O)nn1	-0.147
